Recorded measurements of viability, T/C, one per entry
# System: NCI-H1876 complex spheroid growth, % test/control
# measurement_protocol: Anticancer human tumor NCI-H1876 cell line growth inhibition [Asc];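 further: compound exposure lasted 7 days starting three days after seeding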;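 on viability, T/C: 100% = DMSO vehicle control wells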
# conditions: second compound 1 µM; first compound 0.316 µM; stronger effect = lower value
Your answer is read as %, so omit the unit and give the number.

The examples below pair each entry with its known result.
compound	target	measurement_unit	viability, T/C
CCN1CCN(Cc2ccc(Nc3ncc(F)c(-c4cc(F)c5nc(C)n(C(C)C)c5c4)n3)nc2)CC1 + Cc1c(S(C)(=O)=O)c(-c2cc(F)cc(N3CCN(c4ccc(NS(=O)(=O)c5ccc(NC(CCN6CCC(C(=O)OCCCP(=O)(O)O)CC6)CSc6ccccc6)c(S(=O)(=O)C(F)(F)F)c5)cc4)CC3)c2)c(-c2ccc(Cl)cc2)n1C(C)C	NCI-H1876 complex spheroid growth, % test/control	%	121
C=C(F)C(=O)N1CCN(c2nc(OCC3CCCN3C)nc3c2CCN(c2cccc4cccc(Cl)c24)C3)CC1CC#N (configuration not stated) + CNC(C)C(=O)NC1CN(S(=O)(=O)c2cccc(S(=O)(=O)N3CCC4CCC(C(=O)NC(c5ccccc5)c5ccccc5)N4C(=O)C(NC(=O)C(C)NC)C3)c2)CCC2CCC(C(=O)NC(c3ccccc3)c3ccccc3)N2C1=O	NCI-H1876 complex spheroid growth, % test/control	%	92.1
O=C(c1cc(Cc2n[nH]c(=O)c3ccccc23)ccc1F)N1CCN(C(=O)C2CC2)CC1 + CNC(C)C(=O)NC1CN(S(=O)(=O)c2cccc(S(=O)(=O)N3CCC4CCC(C(=O)NC(c5ccccc5)c5ccccc5)N4C(=O)C(NC(=O)C(C)NC)C3)c2)CCC2CCC(C(=O)NC(c3ccccc3)c3ccccc3)N2C1=O	NCI-H1876 complex spheroid growth, % test/control	%	97

Q: Consider the compound shown here: C=C(F)C(=O)N1CCN(c2nc(OCC3CCCN3C)nc3c2CCN(c2cccc4cccc(Cl)c24)C3)CC1CC#N (configuration not stated) + Cc1c(S(C)(=O)=O)c(-c2cc(F)cc(N3CCN(c4ccc(NS(=O)(=O)c5ccc(NC(CCN6CCC(C(=O)OCCCP(=O)(O)O)CC6)CSc6ccccc6)c(S(=O)(=O)C(F)(F)F)c5)cc4)CC3)c2)c(-c2ccc(Cl)cc2)n1C(C)C What is its recorded viability, T/C?
A: 94.1

* * *

Measured pIC50 of individual entries
# System: NCI-H1876 complex spheroid growth, % test/control
# measurement_protocol: Anticancer human tumor NCI-H1876 cell line growth inhibition [Asc];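 further: compound exposure lasted 7 days starting three days after seeding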
# conditions: curve of first compound; second compound 0.1 µM
pIC50: −log10 of the molar value.

compound	pIC50
O=C(c1cc(Cc2n[nH]c(=O)c3ccccc23)ccc1F)N1CCN(C(=O)C2CC2)CC1 + Cc1c(S(C)(=O)=O)c(-c2cc(F)cc(N3CCN(c4ccc(NS(=O)(=O)c5ccc(NC(CCN6CCC(C(=O)OCCCP(=O)(O)O)CC6)CSc6ccccc6)c(S(=O)(=O)C(F)(F)F)c5)cc4)CC3)c2)c(-c2ccc(Cl)cc2)n1C(C)C	< 5.00
Cc1nc(N2CCC3(CC2)COC(C)C3N)c(CO)nc1Sc1ccnc(N)c1Cl (configuration not stated) + CNC(C)C(=O)NC1CN(S(=O)(=O)c2cccc(S(=O)(=O)N3CCC4CCC(C(=O)NC(c5ccccc5)c5ccccc5)N4C(=O)C(NC(=O)C(C)NC)C3)c2)CCC2CCC(C(=O)NC(c3ccccc3)c3ccccc3)N2C1=O	< 5.52

Q: Entry C=C(F)C(=O)N1CCN(c2nc(OCC3CCCN3C)nc3c2CCN(c2cccc4cccc(Cl)c24)C3)CC1CC#N (configuration not stated) + Cc1c(S(C)(=O)=O)c(-c2cc(F)cc(N3CCN(c4ccc(NS(=O)(=O)c5ccc(NC(CCN6CCC(C(=O)OCCCP(=O)(O)O)CC6)CSc6ccccc6)c(S(=O)(=O)C(F)(F)F)c5)cc4)CC3)c2)c(-c2ccc(Cl)cc2)n1C(C)C has what pIC50?
A: 5.27

Q: Which pIC50 reading was recorded for the compound NC1CCC(NC2CC2c2ccccc2)CC1 (configuration not stated) + Cc1c(S(C)(=O)=O)c(-c2cc(F)cc(N3CCN(c4ccc(NS(=O)(=O)c5ccc(NC(CCN6CCC(C(=O)OCCCP(=O)(O)O)CC6)CSc6ccccc6)c(S(=O)(=O)C(F)(F)F)c5)cc4)CC3)c2)c(-c2ccc(Cl)cc2)n1C(C)C ?
A: < 7.00

Q: Request the reported pIC50 associated with O=C(c1ccc(F)c(F)c1Nc1ccc(I)cc1F)N1CC(O)([C@@H]2CCCCN2)C1 + Cc1c(S(C)(=O)=O)c(-c2cc(F)cc(N3CCN(c4ccc(NS(=O)(=O)c5ccc(NC(CCN6CCC(C(=O)OCCCP(=O)(O)O)CC6)CSc6ccccc6)c(S(=O)(=O)C(F)(F)F)c5)cc4)CC3)c2)c(-c2ccc(Cl)cc2)n1C(C)C
A: < 6.00

Q: Name the recorded pIC50 for O=C(c1cc(Cc2n[nH]c(=O)c3ccccc23)ccc1F)N1CCN(C(=O)C2CC2)CC1 + CNC(C)C(=O)NC1CN(S(=O)(=O)c2cccc(S(=O)(=O)N3CCC4CCC(C(=O)NC(c5ccccc5)c5ccccc5)N4C(=O)C(NC(=O)C(C)NC)C3)c2)CCC2CCC(C(=O)NC(c3ccccc3)c3ccccc3)N2C1=O .
A: < 5.00

Q: # pIC50 lookup, item COc1c(OCCCN2CCOCC2)ccc2c3n(c(=NC(=O)c4cnc(N)nc4)nc12)CCN3 + CNC(C)C(=O)NC1CN(S(=O)(=O)c2cccc(S(=O)(=O)N3CCC4CCC(C(=O)NC(c5ccccc5)c5ccccc5)N4C(=O)C(NC(=O)C(C)NC)C3)c2)CCC2CCC(C(=O)NC(c3ccccc3)c3ccccc3)N2C1=O
A: 6.15

* * *

# System: NCI-H1876 complex spheroid growth, % test/control
# measurement_protocol: Anticancer human tumor NCI-H1876 cell line growth inhibition [Asc];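 further: compound exposure lasted 7 days starting three days after seeding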
# conditions: curve of first compound; second compound 0.00316 µM
Parameter IC50: see the listing below.

Recorded results for 2 compounds are shown here.
compound	IC50
C=CC(=O)N1CCN(c2nc(=O)n(-c3c(C)ccnc3C(C)C)c3nc(-c4c(O)cccc4F)c(F)cc23)C(C)C1 (configuration not stated) + CNC(C)C(=O)NC1CN(S(=O)(=O)c2cccc(S(=O)(=O)N3CCC4CCC(C(=O)NC(c5ccccc5)c5ccccc5)N4C(=O)C(NC(=O)C(C)NC)C3)c2)CCC2CCC(C(=O)NC(c3ccccc3)c3ccccc3)N2C1=O	> 10 µM
Cc1nc(N2CCC3(CC2)COC(C)C3N)c(CO)nc1Sc1ccnc(N)c1Cl (configuration not stated) + CNC(C)C(=O)NC1CN(S(=O)(=O)c2cccc(S(=O)(=O)N3CCC4CCC(C(=O)NC(c5ccccc5)c5ccccc5)N4C(=O)C(NC(=O)C(C)NC)C3)c2)CCC2CCC(C(=O)NC(c3ccccc3)c3ccccc3)N2C1=O	> 3 µM

Q: Item O=C(c1cc(Cc2n[nH]c(=O)c3ccccc23)ccc1F)N1CCN(C(=O)C2CC2)CC1 + CNC(C)C(=O)NC1CN(S(=O)(=O)c2cccc(S(=O)(=O)N3CCC4CCC(C(=O)NC(c5ccccc5)c5ccccc5)N4C(=O)C(NC(=O)C(C)NC)C3)c2)CCC2CCC(C(=O)NC(c3ccccc3)c3ccccc3)N2C1=O with NCI-H1876 complex spheroid growth, % test/control - IC50?
A: 4.73 µM

Q: Recorded IC50 for C#Cc1c(F)ccc2cc(O)cc(-c3ncc4c(N5CC6CCC(C5)N6)nc(OCC56CCCN5CC(F)C6)nc4c3F)c12 (configuration not stated) + CNC(C)C(=O)NC1CN(S(=O)(=O)c2cccc(S(=O)(=O)N3CCC4CCC(C(=O)NC(c5ccccc5)c5ccccc5)N4C(=O)C(NC(=O)C(C)NC)C3)c2)CCC2CCC(C(=O)NC(c3ccccc3)c3ccccc3)N2C1=O with NCI-H1876 complex spheroid growth, % test/control, please?
A: > 10 µM

Q: Please tell me: IC50 of COc1c(OCCCN2CCOCC2)ccc2c3n(c(=NC(=O)c4cnc(N)nc4)nc12)CCN3 + CNC(C)C(=O)NC1CN(S(=O)(=O)c2cccc(S(=O)(=O)N3CCC4CCC(C(=O)NC(c5ccccc5)c5ccccc5)N4C(=O)C(NC(=O)C(C)NC)C3)c2)CCC2CCC(C(=O)NC(c3ccccc3)c3ccccc3)N2C1=O , system NCI-H1876 complex spheroid growth, % test/control?
A: > 1 µM

Q: Give NCI-H1876 complex spheroid growth, % test/control IC50 for CCN1CCN(Cc2ccc(Nc3ncc(F)c(-c4cc(F)c5nc(C)n(C(C)C)c5c4)n3)nc2)CC1 + CNC(C)C(=O)NC1CN(S(=O)(=O)c2cccc(S(=O)(=O)N3CCC4CCC(C(=O)NC(c5ccccc5)c5ccccc5)N4C(=O)C(NC(=O)C(C)NC)C3)c2)CCC2CCC(C(=O)NC(c3ccccc3)c3ccccc3)N2C1=O
A: > 1 µM

Q: Identify the measured IC50 of C=C(F)C(=O)N1CCN(c2nc(OCC3CCCN3C)nc3c2CCN(c2cccc4cccc(Cl)c24)C3)CC1CC#N (configuration not stated) + CNC(C)C(=O)NC1CN(S(=O)(=O)c2cccc(S(=O)(=O)N3CCC4CCC(C(=O)NC(c5ccccc5)c5ccccc5)N4C(=O)C(NC(=O)C(C)NC)C3)c2)CCC2CCC(C(=O)NC(c3ccccc3)c3ccccc3)N2C1=O for NCI-H1876 complex spheroid growth, % test/control.
A: 5.58 µM
